Where do these numbers come from? They come from patent US20050019854A1.

target: PIN (Rattus norvegicus, UniProt P63170); construct: GST (N, cleaved yes); made in house; host or cells: E. coli BL21 (DE3), vector pGEX-2T; test: Surface plasmon resonance analysis of PIN binding to immobilized nNOS peptides (Example 1); details: BIAcore, PIN 5-40 μg/ml, global analysis; read-out: Kd (dissociation constant) of PIN for immobilized peptide
Sequence (P63170 whole entry): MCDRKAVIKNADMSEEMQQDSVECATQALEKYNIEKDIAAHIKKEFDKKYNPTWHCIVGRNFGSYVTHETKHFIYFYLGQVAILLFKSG
Ends that are not written are not given here.
parameter: Kd (nM)

[
  {
    "residueCodes": "KDTGIQVDWD [SEQ ID NO: 3]",
    "unitOfMeasurement": "nM",
    "resultValue": 5.38
  }
]
